Where do these numbers come from? They come from ChEMBL document CHEMBL6109144.

target: Glucagon-like peptide 1 receptor (Homo sapiens, UniProt P43220); assay: Agonist activity at N-terminal hemagglutinin-tagged human GLP-1R expressed in CHO cells co-transfected with pcDNA3.0 assessed as increase in intracellular cAMP accumulation incubated for 30 mins by microplate reader analysis; assay type: functional, cell-based
Sequence (P43220 whole entry): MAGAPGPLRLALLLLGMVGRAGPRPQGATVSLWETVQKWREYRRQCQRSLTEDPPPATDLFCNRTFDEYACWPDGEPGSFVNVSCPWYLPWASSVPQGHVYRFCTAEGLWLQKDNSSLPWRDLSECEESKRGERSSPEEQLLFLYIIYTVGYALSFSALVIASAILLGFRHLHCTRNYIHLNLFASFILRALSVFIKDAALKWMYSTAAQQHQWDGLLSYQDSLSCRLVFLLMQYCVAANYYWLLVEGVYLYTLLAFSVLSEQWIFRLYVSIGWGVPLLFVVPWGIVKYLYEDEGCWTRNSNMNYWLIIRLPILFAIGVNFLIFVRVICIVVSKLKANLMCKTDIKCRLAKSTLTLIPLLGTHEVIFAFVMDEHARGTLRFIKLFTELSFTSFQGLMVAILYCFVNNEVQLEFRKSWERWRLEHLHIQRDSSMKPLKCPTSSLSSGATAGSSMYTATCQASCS
RECORDED_METRIC: EC50 (nM)

{"MOL_SMILES": "O=C(O)c1cc(F)c2nc(CN3CCC(c4cccc(OCc5ccc(C6CC(F)(F)C6)cc5F)n4)CC3)n(C[C@@H]3CCO3)c2c1", "EC50 (nM)": 0.026}
{"MOL_SMILES": "COc1cc(C(=O)O)cc2c1nc(CN1CC=C(c3cccc(OCc4ccc(C5CC(F)(F)C5)cc4F)n3)CC1)n2C[C@@H]1CCO1", "EC50 (nM)": 0.012}

[a] O=C(O)c1cc(F)c2nc(CN3CCC(c4cccc(OCc5ccc(CC(F)F)cc5F)n4)CC3)n(C[C@@H]3CCO3)c2c1
[b] O=C(O)c1cc2c(nc(CN3CCC(Oc4cccc(COc5ccc(Cl)cc5F)n4)CC3)n2C[C@@H]2CCO2)s1
[c] O=C(O)c1ccc2nc(CN3CC=C(c4cccc(OCc5ccc(C6CC(F)(F)C6)cc5F)n4)CC3)n(C[C@@H]3CCO3)c2n1
[d] O=C(O)c1cc2c(nc(CN3CCC(Oc4cccc(COc5ccc(Cl)cc5)n4)CC3)n2C[C@@H]2CCO2)s1
[e] Cn1ccc(-c2ccc(Cc3cccc(OC4CCN(Cc5nc6sc(C(=O)O)cc6n5C[C@@H]5CCO5)CC4)n3)cc2)n1
Prompt: Hello, I need these entries ordered by EC50, highest reading first. Thanks! Lab note: record answer as labels in requested order.
Completion: e, b, d, a, c

[P] O=C(O)c1ccc2nc(CN3CCC(Oc4cccc(COc5ccc(Cl)c6ccoc56)n4)CC3)n(C[C@@H]3CCO3)c2n1
[Q] O=C(O)c1ccc2nc(CN3CCC(Oc4cccc(Cc5ccc(Cl)c6c5OCC6)n4)CC3)n(C[C@@H]3CCO3)c2c1
Prompt: Return label of the item with the larger EC50. Candidates: P , Q . Reply with the label of the item you choose.
Completion: Q

[A] N#Cc1ccc(Cc2cccc(OC3CCN(Cc4nc5sc(C(=O)O)cc5n4C[C@@H]4CCO4)CC3)n2)c(F)c1
[B] O=C(O)c1cc2c(nc(CN3CCC(Oc4cccc(Cc5ccc6cnn(CC(F)F)c6c5)n4)CC3)n2C[C@@H]2CCO2)s1
Prompt: Lower value for measured EC50? Options: A , B Reply with the label of the item you choose.
Completion: A

----------
assay: in vivo; details: Sprague-Dawley, rat, po, 5 mg/kg
RECORDED_METRIC: Tmax at 24 h (min)

Some molecules with recorded Tmax at 24 h:
{"MOL_SMILES": "O=C(O)c1ccc2nc(CN3CC=C(c4cccc(OCc5ccc(C6CC(F)(F)C6)cc5F)n4)CC3)n(C[C@@H]3CCO3)c2c1", "UNIT_ABBREV": "min", "Tmax at 24 h": 25.2}
{"MOL_SMILES": "O=C(O)c1ccc2nc(CN3CCC(Oc4cccc(Cc5ccc(Cl)c6c5OCC6)n4)CC3)n(C[C@@H]3CCO3)c2n1", "UNIT_ABBREV": "min", "Tmax at 24 h": 40.2}

[1] O=C(O)c1ccc2nc(CN3CCC(Oc4cccc(COc5ccc(Cl)c6ccoc56)n4)CC3)n(C[C@@H]3CCO3)c2n1
[2] COc1cc(C(=O)O)cc2c1nc(CN1CCC(c3cccc(OCc4ccc(C5CC(F)(F)C5)cc4F)n3)CC1)n2C[C@@H]1CCO1
Prompt: Lower value for measured Tmax at 24 h? Options: 1 , 2 Reply with the label of the item you choose.
Completion: 1
(1: 30 min, 2: 100 min)
